- Experimental system: T1, PUF4 RNA-binding domain (Saccharomyces cerevisiae, UniProt P25339 537-888)
- T1 sequence: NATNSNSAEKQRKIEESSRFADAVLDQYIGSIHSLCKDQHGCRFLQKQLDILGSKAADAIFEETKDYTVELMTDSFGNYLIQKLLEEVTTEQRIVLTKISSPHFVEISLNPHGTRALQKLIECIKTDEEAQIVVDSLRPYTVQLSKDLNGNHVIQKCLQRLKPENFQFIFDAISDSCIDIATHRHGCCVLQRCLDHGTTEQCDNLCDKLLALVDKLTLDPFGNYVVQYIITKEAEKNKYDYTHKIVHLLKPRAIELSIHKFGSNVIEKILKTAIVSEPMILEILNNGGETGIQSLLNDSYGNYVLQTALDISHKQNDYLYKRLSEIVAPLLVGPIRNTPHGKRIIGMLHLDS
- Assay text: Mg; RNA-MaP; 20 mM Na-HEPES pH 7.4, 30 mM KOAc, 0.75 mM MgCl2, 0.1% Tween-20, 5% glycerol, 0.1 mg/mL BSA, 2 mM DTT; 25 C; 0.0125-409.6 nM protein
- Measurement setup: tags: N-His6-TEV cleaved; C-SNAP kept, Cy3B-labelled; label: tethered on chip by stalled RNA polymerase
pKd: −log10 of the molar value.
Respond with t for pKd values of 7 and above, f for values below.

Please review the following examples before continuing.
Task item: Reported pKd reaches at least 7 for Id_iii_S2_P5E.8_K5.4_C5.3_[C-2A]_H5.1_A5.2_F5.1_T5.2 (ssRNA) RNA: UUUGAUUAAUAUGAUAUCGUUCUUUCUUAUUGUAAUAUUAUAUUCUUUCUCGAUAUCAUAUUAAUCUUU ?
Reply: t

Task item: Reported pKd reaches at least 7 for UCUCUUACUUGUAUAUAUAUCUCUU (ssRNA) [Id_iii_S1_P3E.5_K3.1_C3.3_[T-3A]_H3.1_A3.1_F3.1_T3.2] ?
Reply: t

Task item: Reported pKd reaches at least 7 for Id_ii_S4_P5E.2_K5.1_C5.2_H5.1_A5.1_F5.1_T5.2_[A12C] (ssRNA) RNA: UUUGACAACUGAUCGUUCUUUCUCUUGUAUUAUUAUCUUCUUUCUCGAUCAGUUGUCUUU ?
Reply: t

Task item: Reported pKd reaches at least 7 for UCUCUUUGUGUACUAUCUCUU (ssRNA) [Ib_S1_P4E.1_K4.1_C4.1_H4.1_[A4G]_A4.1_[T7C]_F4.1_T4.1] ?
Reply: t

More entries:
Task item: Reported pKd reaches at least 7 for Ie_S2_P5E.1_K5.1_C5.1_H5.1_A5.1_[+7CCT]_F5.1_T5.1 (ssRNA) RNA: UUUGAUUAAUAUGAUAUCGUUCUUUCUUGUAUUACCUUUAUUCUUUCUCGAUAUCAUAUUAAUCUUU ?
Reply: t

Task item: Reported pKd reaches at least 7 for Ic_S2_P4E.1_K4.1_C4.1_H4.1_A4.1_[T7G]_F4.1_[T8C]_T4.1 (ssRNA) RNA: UUUGAUUAAUAUGAUAUCGUUCUUUCUUGUAUAGCAUUCUUUCUCGAUAUCAUAUUAAUCUUU ?
Reply: t

Task item: Reported pKd reaches at least 7 for UCUCUUUGUACGUUCUCUCUU (ssRNA) [Ic_S1_P4E.1_K4.1_C4.1_H4.1_A4.1_[T5C]_[A6G]_F4.1_[A9C]_T4.1] ?
Reply: t

Task item: Reported pKd reaches at least 7 for UCUCUUUCUAUAUAUAGCUCUCUU (ssRNA) [Id_ii_S1_P3E.3_K3.2_C3.2_[C-2T]_[T-1C]_H3.2_A3.1_F3.1_T3.2_[T9G]_[A10C]] ?
Reply: f

Task item: Reported pKd reaches at least 7 for UCUCUUUGUACGUCACUCUCUU (ssRNA) [Ic_S1_P5E.1_K5.1_C5.1_H5.1_A5.1_[T5C]_[T6G]_[A7T]_F5.1_[T8C]_[T9A]_[A10C]_T5.1] ?
Reply: f

Task item: Reported pKd reaches at least 7 for Ic_S2_P5E.1_K5.1_C5.1_H5.1_A5.1_[A7T]_F5.1_[T9C]_[A10G]_T5.1 (ssRNA) RNA: UUUGAUUAAUAUGAUAUCGUUCUUUCUUGUAUUUUCGUUCUUUCUCGAUAUCAUAUUAAUCUUU ?
Reply: t

Task item: Reported pKd reaches at least 7 for Ic_S4_P4E.1_K4.1_C4.1_H4.1_A4.1_[T5A]_[A6T]_[T7A]_F4.1_[T8C]_T4.1 (ssRNA) RNA: UUUGACAACUGAUCGUUCUUUCUUGUAAUACAUUCUUUCUCGAUCAGUUGUCUUU ?
Reply: f

Task item: Reported pKd reaches at least 7 for Ic_S2_P4E.1_K4.1_C4.1_H4.1_A4.1_[T5C]_[A6G]_[T7G]_F4.1_[T8C]_[A9C]_T4.1 (ssRNA) RNA: UUUGAUUAAUAUGAUAUCGUUCUUUCUUGUACGGCCUUCUUUCUCGAUAUCAUAUUAAUCUUU ?
Reply: f

Task item: Reported pKd reaches at least 7 for Ic_S2_P3E.1_K3.1_C3.1_H3.1_A3.1_[T5A]_[A6C]_F3.1_[T7A]_[A8T]_T3.1 (ssRNA) RNA: UUUGAUUAAUAUGAUAUCGUUCUUUCUUGUAACAUUUCUUUCUCGAUAUCAUAUUAAUCUUU ?
Reply: t

Cited source: paper PMC9352680
